target: human recombinant melanocortin-1 receptor (human, UniProt Q01726 1-317); assay: cell-based or functional assay
Sequence (Q01726 whole entry): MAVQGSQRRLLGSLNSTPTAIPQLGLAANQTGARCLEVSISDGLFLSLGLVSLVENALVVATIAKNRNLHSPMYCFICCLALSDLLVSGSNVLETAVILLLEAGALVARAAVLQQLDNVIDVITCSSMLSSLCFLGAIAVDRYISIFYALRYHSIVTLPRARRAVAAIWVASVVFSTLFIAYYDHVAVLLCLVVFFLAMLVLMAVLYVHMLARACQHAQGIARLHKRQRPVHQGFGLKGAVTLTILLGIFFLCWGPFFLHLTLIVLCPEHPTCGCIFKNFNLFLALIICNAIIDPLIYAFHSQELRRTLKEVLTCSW
Bridge positions count the residues as written; N and C are the ends. Square brackets hold non-standard residues; d marks the D form. Orn = NCCC[C@H](N)C(=O)O
For each record, write down the corresponding hMC1-R EC50.
State the answer as a number, implicitly in µM.

query: # query: hMC1-R EC50 of entry Ac-R[Orn]N[dF]RWE-NH2 (lactam 2-7, also called peptide No. 154) [Ac-Arg-cyclo(Orn-Asn-D-Phe-Arg-Trp-Glu)-NH2]
result: 0.025

query: Which measured hMC1-R EC50 value corresponds to Ac-RKN[dF]RWD-NH2 (lactam 2-7) [Ac-Arg-cyclo(Lys-Asn-D-Phe-Arg-Trp-Asp)-NH2] ?
result: 0.014

query: For the binder shown here, Ac-REN[dF]RW[Orn]-NH2 (lactam 2-7, also called peptide No. 161) [Ac-Arg-cyclo(Glu-Asn-D-Phe-Arg-Trp-Orn)-NH2] , give the reported hMC1-R EC50.
result: 0.013

query: Reported hMC1-R EC50, binder RKNFRXD (HELM PEPTIDE1{[ac].R.K.N.[dF].R.[O=C([C@H](Cc1ccc2ccccc2c1)N[*:1])[*:2]].D.[am]}$PEPTIDE1,PEPTIDE1,3:R3-8:R3$$$V2.0; SMILES CC(=O)N[C@@H](CCCNC(=N)N)C(=O)N[C@H]1CCCCNC(=O)C[C@@H](C(N)=O)NC(=O)[C@H](Cc2ccc3ccccc3c2)NC(=O)[C@H](CCCNC(=N)N)NC(=O)[C@@H](Cc2ccccc2)NC(=O)[C@H](CC(N)=O)NC1=O, also called peptide No. 162) [Ac-Arg-cyclo(Lys-Asn-D-Phe-Arg-Nal 2-Asp)-NH2] : ____
result: 0.022

query: hMC1-R EC50 lookup needed for RXQFRWX (N-acetyl; X2 = Dab; D-Phe 4; X7 = hGlu; side-chain lactam Dab2-hGlu7; C-terminal amide, also called peptide No. 159) [Ac-Arg-cyclo(Dab-Gln-D-Phe-Arg-Trp-hGlu)-NH2] , thanks.
result: 0.026

query: hMC1-R EC50 lookup needed for Ac-[dR][Orn]N[dF]RWE-NH2 (lactam 2-7, also called peptide No. 156) [Ac-D-Arg-cyclo(Orn-Asn-D-Phe-Arg-Trp-Glu)-NH2] , thanks.
result: 0.08
